reported_property: melting point

compound=O=C1Nc2ccccc2N(C(=O)N2CCC(CCCCN3CCCC3)CC2)c2ncccc21 reported_property="melting point" value="193 to 195 °C"
compound=Cc1ccc(S(=O)(=O)ON=C(C#N)c2ccc(F)cc2)cc1 reported_property="melting point" value="129 to 140 °C"
compound="CC(C)(C)OC(=O)Nc1cc(N2CCC(OC3CCCCO3)CC2)c(-c2ccc(F)cc2)cc1N (racemic)" reported_property="melting point" value="157 to 161 °C"
compound=C=C(C)C(=O)Oc1ccc2ccc(O)c(-n3nc4ccccc4n3)c2c1 reported_property="melting point" value="167 to 168 °C"
compound=COc1c(Cl)ccc(Cl)c1C(=O)NOCC(=O)O reported_property="melting point" value="145 to 154 °C"
compound=O=C(Cn1c(-c2ccc(Cl)cc2)nc2cccnc21)Nc1nccs1 reported_property="melting point" value="> 260 °C"
compound=COc1ccc(-c2nc(CCO)nc3cc(OC)c(OC)cc23)cc1OC reported_property="melting point" value="165 to 166 °C"
compound="COc1cc(C(O)C#Cc2cnc(N)nc2N)cc(OC)c1OC (stereo not given)" reported_property="melting point" value="203 to 205 °C"
compound="CCn1cc(C(=O)O)c(=O)c2cc(F)c(N3CCN(C(=O)OC(OC(=O)C(C)c4ccc(CC(C)C)cc4)C(=O)OC(C)C)CC3)cc21 (stereo not given)" reported_property="melting point" value="88 to 96.5 °C"
compound=CCOC(=O)COc1coccc1=O reported_property="melting point" value="58 to 60 °C"
compound=COc1ccc(C(=O)Nc2ccccc2)cc1NCc1cccc(C#N)c1 reported_property="melting point" value="172 to 174 °C"
compound=O=C(O)CCCc1cc2nc(Cl)ccc2n1S(=O)(=O)c1cccc2cccnc12 reported_property="melting point" value="186 to 189 °C"
compound=COC(=N)c1sc2ccccc2c1O reported_property="melting point" value="201 °C"
compound=COC(=O)Cc1nc2cc(OC)c(OC)cc2c(-c2ccc(OC)c(OC)c2)c1C(=O)OC reported_property="melting point" value="170 to 171 °C"
compound="COc1ccc(C2CCC(C(=O)O)CC2)c2c1OCO2 (stereo not given)" reported_property="melting point" value="206 to 208 °C"
compound="CC(C)(C)c1cc(C2N[C@H](C(=O)O)CS2)cc(C(C)(C)C)c1O (stereo not given in full)" reported_property="melting point" value="163 to 165 °C"
compound=O=C1Nc2ccc(CN3C(=O)CSC3=O)c(F)c2C1=Cc1cc(CN2CCOCC2)c[nH]1 reported_property="melting point" value="246 to 248 °C"
compound=Nc1c(-c2cc(Cl)ccc2O)nnn1-c1ccc(C(F)(F)F)cc1Cl reported_property="melting point" value="74.5 to 77.5 °C"
compound="CCC(C)(O)C(=O)Nc1ccc(S(=O)(=O)c2ccccc2)cc1 (stereo not given)" reported_property="melting point" value="163 to 165 °C"
compound=O=c1ccc(-c2cccc(F)c2)n[nH]1 reported_property="melting point" value="207 to 209 °C"

###

// reported melting point per item
reported_property: melting point

compound=COc1cccc(-c2ccnc(Nc3cc(OC)c(OC)c(OC)c3)n2)c1 value="155 to 156 °C"
compound="CCC(NS(=O)(=O)c1ccc(F)cc1)P(=O)(Oc1ccccc1)Oc1ccccc1 (centres undefined)" value="148 to 151 °C"
compound="CCNC(=NS(=O)(=O)c1cccc(C#N)c1)N1CC(CC)C=N1 (centres undefined)" value="164 to 168 °C"
compound="Cc1nn(C2=C(F)CC(F)(C#N)C=C2)c(=O)[nH]c1=O (centres undefined)" value="214 °C"
compound="CCCc1nccn1C(C)COCC1=C(C(=O)OCC)C(c2ccccc2Cl)C2=C(CCCC2=O)N1 (centres undefined)" value="127 to 131 °C"
compound=COc1ccccc1-n1c(=O)[nH]c2c(C(N)=O)nc(-c3cccc4ncccc34)nc21 value="335 to 337 °C"
compound=CCCCCCCCCCCCN(Cc1cccnc1)S(C)(=O)=O value="43 to 44 °C"
compound=COC(=O)N(C)n1c(C)nc(N2CCc3ccccc3CC2)c(C#N)c1=O value="120 to 122 °C"
compound="CC1CC(Nc2nnc(-c3cccc(Oc4cccc(C(F)(F)F)c4)c3)s2)CC(C)(C)C1 (centres undefined)" value="101 to 102 °C"

###

// reported melting point per item
reported_property: melting point

compound=CCCCOc1cc(CC(=O)O)n(Cc2ccc(Cl)cc2Cl)n1 value="105 to 108 °C"
compound=COc1cccc(C(=O)c2ccc(=O)n(Cc3ccc(Cl)cc3)c2)c1 value="104 °C"
compound=O=C(NC[C@@H](C(=O)NO)N1CCCCC1)c1ccc(OCc2ccnc(Br)c2)cc1 value="150 °C"
compound=CC#CCOc1cc(Oc2cccc(C#N)c2)ncn1 value="121 °C"
compound=COc1cc2nc(N3CCc4ccc(NC(C)=O)cc4C3)nc(N)c2cc1OC value="243 to 244 °C"
compound=CC(C)c1ccc([N+](=O)[O-])c(C(C)C)c1NC(=O)CN1CCN(CCSc2nc3cccc([N+](=O)[O-])c3o2)CC1 value="70 to 72 °C"
compound=CN(C(=O)Oc1cccc2c1OC(C)(C)C2)C(=O)N1CCCCC1 value="98 to 100 °C"
compound=NNc1c([N+](=O)[O-])cnn1-c1c(Cl)cc(C(F)(F)F)cc1Cl value="133 to 135 °C"
compound=Cc1ccccc1Cc1n[nH]c2c1c(=O)n(-c1cccc(C(F)(F)F)c1)c1ncccc21 value="249 to 252 °C"
compound=Cc1nn(C)c2nc(-c3ccccc3)cc(N(C)C)c12 value="90 to 91 °C"
compound=N#Cc1ccc(C(=O)NC(=S)NCCc2ccccc2)cc1 value="142 to 144 °C"
compound=COc1c(-c2cc3c(s2)CCC/C3=N\OCc2ccccn2)ccc2c(=O)c(C(=O)O)cn(C3CC3)c12 value="178 to 179 °C"
compound=CCCCN(N=Nc1[nH]cnc1C(N)=O)C(C)=N value="191 °C"
compound=Nc1ccc(C(=O)c2ccccc2)cc1F value="83 to 85 °C"
compound=CCCCc1ncc(/C=C(\Cc2ccc(N)cc2)C(=O)O)n1Cc1ccccc1Cl value="191 to 192 °C"
compound="O=C1C[C@@H]2O[C@@H](CS(=O)(=O)c3ccccc3)CN12 (racemic)" value="144 to 146 °C"
compound=CC(C)(C)c1c(=O)o[n-][n+]1CCSC12CC3CC(CC(C3)C1)C2 value="55 to 56 °C"

###

// reported melting point per item
reported_property: melting point

compound=Cc1c(C(=O)CBr)ncn1C value="276 to 277 °C"
compound=Cc1cc(Cl)ccc1C(=O)NN(CCF)CCF value="85 to 87 °C"
compound=CCOC(=O)c1ncn2c1CN(Cc1ccc(OC)cc1OC)C(=O)c1cc(OC)ccc1-2 value="204 °C"
compound=CCC(CC)c1nn(-c2ccc(Br)cn2)cc1CCCOc1c(CC(=O)O)cccc1OC value="94 to 95 °C"
compound=COc1ccc(-c2nc3ccc(C(=O)O)cc3nc2-c2ccc(OC)cc2)cc1 value="284 to 285 °C"
compound=CN1C(=O)[C@@H](NC(=O)C(C)(C)C)N=C(c2ccccc2)c2ccccc21 value="85 to 94 °C"
compound=CNc1cc(F)ccc1C(=O)Cc1nnn[nH]1 value="214 to 216 °C"
compound=CC1=C(C)C(=O)N(c2ccc(Cl)c(Cl)c2)C1=O value="188 °C"
compound=CCc1cc(NCc2ccc(-c3ccccc3-c3nnn[nH]3)cc2)n2ncc(Cl)c2n1 value="136 to 138 °C"
compound="Cc1cccc(C)c1N(C(C)CN1C(=O)c2ccccc2C1=O)S(C)(=O)=O (centres undefined)" value="188 to 190 °C"
compound=CN1C(=O)Cc2cnc(N3CCN(C(c4ccccc4)c4ccccc4)CC3)nc21 value="75 to 80 °C"
compound="OC1CSC(Oc2cc(-c3ccncc3)cnc2F)C(O)C1O (centres undefined)" value="98 to 102 °C"
compound=Nc1c(C(=O)c2ccccc2OCc2ccccc2)oc2ccc(Cl)cc12 value="158 to 160 °C"
compound=CNC(=O)OCC(F)(F)Cn1nc(C)c(-c2ccc3c(c2)NC(=O)CO3)c1-c1ccc(F)cc1 value="112 °C"
compound=COc1ccc(-c2cc3cc(OC)c(OC)cc3c(C)n2)cc1OC value="168 to 169 °C"
compound="CC(Cc1c[nH]c2ccccc12)(NC(=O)OC1CCCCC1Cl)C(=O)NCCc1ccccc1 (centres undefined)" value="69 to 78 °C"
compound="Cc1ccc(N2C(=O)C(Cl)=C(C(=O)c3ccc(C(C)C)cc3)C2c2ccc(OC(F)(F)F)cc2)nn1 (centres undefined)" value="293 °C"
compound=COc1ccc(C)cc1NC(=O)Nc1ccc(N2CCN(C(=O)Oc3c(C)cccc3Cl)CC2)cc1 value="146 to 148 °C"
compound="NC1=NC(c2cccc(-c3cccnc3F)c2)(c2cnn(CC(F)(F)F)c2)C2=NCCCN12 (centres undefined)" value="106 to 116 °C"
